System: 388556-164-R-J1-PDC complex spheroid viability
Assay: Anticancer human tumor 388556-164-R-J1-PDC patient-derived colon adenocarcinoma cell line growth inhibition [RAS]
Conditions: curve of compound
MEASURE_NAME: IC50

These solved cases illustrate the format of a correct answer.
>>> result("C[C@@H](NC(=O)c1ncnc(N)c1Cl)c1ncc(C(=O)Nc2cc(C(F)(F)F)c(Cl)cn2)s1")
"> 10000 nM"
>>> result("CC(Nc1ccc2c(c1)OCCn1cc(N3C(=O)OCC3C(F)F)nc1-2)C(N)=O (centres undefined)")
"> 10000 nM"
>>> result("CCc1c2c(nc3ccc(O)cc13)-c1cc3c(c(=O)n1C2)COC(=O)[C@]3(O)CC")
"90.4 nM [middle of 4 runs]"
>>> result("CC(C)NCC(C(=O)N1CCN(c2ncnc3c2C(C)CC3O)CC1)c1ccc(Cl)cc1 (centres undefined)")
"> 10000 nM"
>>> result("C=CC(=O)N1CCN(c2nc(OCC3CCCN3C)nc3c(F)c(-c4nc(N)cc(C)c4C(F)(F)F)c(Cl)cc23)C(C)C1 (centres undefined)")
"> 1000 nM"

Sample CC1(C)CCC(Nc2ncc(C(F)(F)F)c(-c3c[nH]c4c(P(C)(C)=O)c(C#N)ccc34)n2)CN1 (centres undefined) ; IC50 observed: > 300 nM

Sample CCN1CCN(Cc2ccc(Nc3ncc(F)c(-c4cc(F)c5nc(C)n(C(C)C)c5c4)n3)nc2)CC1 ; IC50 observed: > 1000 nM

Sample Nc1ccn(C2OC(CO)C(O)C2(F)F)c(=O)n1 (centres undefined) ; IC50 observed: > 1000 nM

Sample O=C(c1ccc(F)c(F)c1Nc1ccc(I)cc1F)N1CC(O)([C@@H]2CCCCN2)C1 ; IC50 observed: 164 nM [middle of 4 runs]

----------
System: 388556-164-R-J1-PDC complex spheroid viability
Assay: Anticancer human tumor 388556-164-R-J1-PDC cell line growth inhibition [RAS];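 also: spheroids exposed to compound for 7 days before readout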;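 as to viability, T/C: 100% = DMSO vehicle control luminescence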
Conditions: second compound 0.000949 µM; first compound 0.316 µM; stronger effect = lower value
Below: a set of entries, each annotated with reported viability, T/C.
# number only, unit % dropped from output

>>> numeric_value("C[C@@H](NC(=O)c1ncnc(N)c1Cl)c1ncc(C(=O)Nc2cc(C(F)(F)F)c(Cl)cn2)s1 + CCn1c(-c2cc(N3CCN(C)CC3)cnc2C(C)OC)c2c3cc(ccc31)-c1csc(n1)CC(NC(=O)C1CC1C)C(=O)N1CCCC(N1)C(=O)OCC(C)(C)C2")
105

Turning now to a further record.
Sample C=CC(=O)Nc1cc(Nc2nccc(-c3cn(C)c4ccccc34)n2)c(OC)cc1N(C)CCN(C)C + CCn1c(-c2cccnc2C(C)OC)c2c3cc(ccc31)N1CCOC(CC(NC(=O)C(C(C)C)N(C)C(=O)C3(F)CCN(C(=O)C#CC(C)(C)N(C)C)CC3)C(=O)N3CCCC(N3)C(=O)OCC(C)(C)C2)C1 ; viability, T/C observed: 75.2

----------
Tested on: 388556-164-R-J1-PDC complex spheroid viability
Test: Anticancer human tumor 388556-164-R-J1-PDC cell line growth inhibition [RAS];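 also: spheroids exposed to compound for 7 days before readout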;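 as to viability, T/C: 100% = DMSO vehicle control luminescence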
Conditions: second compound 0.1 µM; first compound 0.316 µM; stronger effect = lower value
MEASURE_NAME: viability, T/C (%)
# number only, unit % dropped from output

>>> numeric_value("CC(C)NCC(C(=O)N1CCN(c2ncnc3c2C(C)CC3O)CC1)c1ccc(Cl)cc1 (configuration not stated) + C#Cc1c(F)ccc2cc(O)cc(-c3ncc4c(N5CC6CCC(C5)N6)nc(OCC56CCCN5CC(F)C6)nc4c3F)c12")
99.7
>>> numeric_value("O=C(c1ccc(F)c(F)c1Nc1ccc(I)cc1F)N1CC(O)([C@@H]2CCCCN2)C1 + C=CC(=O)N1CCN(c2nc(OCC3CCCN3C)nc3c(F)c(-c4nc(N)cc(C)c4C(F)(F)F)c(Cl)cc23)C(C)C1")
38.1
>>> numeric_value("NC1c2ccccc2OC12CCN(c1cnc3c(N4CCCc5ncccc54)n[nH]c3n1)CC2 (configuration not stated) + C#Cc1c(F)ccc2cc(O)cc(-c3ncc4c(N5CC6CCC(C5)N6)nc(OCC56CCCN5CC(F)C6)nc4c3F)c12")
43.8
>>> numeric_value("CC(Nc1ccc2c(c1)OCCn1cc(N3C(=O)OCC3C(F)F)nc1-2)C(N)=O (configuration not stated) + C=CC(=O)N1CCN(c2nc(OCC3CCCN3C)nc3c(F)c(-c4nc(N)cc(C)c4C(F)(F)F)c(Cl)cc23)C(C)C1")
83

Sample O=C(c1ccc(F)c(F)c1Nc1ccc(I)cc1F)N1CC(O)([C@@H]2CCCCN2)C1 + C#Cc1c(F)ccc2cc(O)cc(-c3ncc4c(N5CC6CCC(C5)N6)nc(OCC56CCCN5CC(F)C6)nc4c3F)c12 ; viability, T/C observed: 39.2

Sample CCC(CC)c1cc(NC2CCC(N)C2)n2nccc2n1 (configuration not stated) + C=CC(=O)N1CCN(c2nc(OCC3CCCN3C)nc3c(F)c(-c4nc(N)cc(C)c4C(F)(F)F)c(Cl)cc23)C(C)C1 ; viability, T/C observed: 102

Sample CCC(CC)c1cc(NC2CCC(N)C2)n2nccc2n1 (configuration not stated) + C#Cc1c(F)ccc2cc(O)cc(-c3ncc4c(N5CC6CCC(C5)N6)nc(OCC56CCCN5CC(F)C6)nc4c3F)c12 ; viability, T/C observed: 102
